B1: library; a variant is named by its letters at N, in order (parent)
chain: GCUGUCACCGGAAUACCAGCAUCGUCUUGAUGCCCUUGGAAGUCCGGUCUGAUGAGUCCNNNNNGGACGAAACAGC

# Variants of: B1
# Procedure text: normalized RNA/DNA level with ligand (relative to sTRSVctl = 100) (log10 (% of sTRSVctl)); higher = less ribozyme self-cleavage, higher mRNA level
# Condition set: ligand concentration (+) RNA-Seq: 5 mM, HEK293T, reporter: mCherry (pCS4076), ligand present: yes
Reported endpoint: normalized RNA/DNA level with ligand (log10)
Form field (numeric): enter value without unit.

normalized RNA/DNA level with ligand (log10) lookup needed for AAAAA , thanks. 1.85
